system: PC-3; experiment: NCI tumour cell line growth inhibition, 48 h
The source made the active and inactive calls. Rule as the data show it: active = GI50 up to about 1.1 µM and inactive = higher.
Possible outcomes: YES = active, NO = inactive

{"compound": "COc1ccc(/N=c2/[nH]c(N)c(C(=O)c3ccc(OC)cc3)s2)cc1", "assigned.category": "YES"}
{"compound": "COc1ccc(OC)c(N(CN2C(=O)CCC2C(=O)O)C(C)=O)c1 (stereo not given)", "assigned.category": "NO"}
{"compound": "COc1cccc(C23CCCC(C2)N(C)CC3OC(=O)c2ccccc2)c1OC (stereo not given)", "assigned.category": "NO"}
{"compound": "[O-][N+]1=C(c2ccccc2)/C(=C2/C(c3ccccc3)=[N+]([O-])c3ccccc32)Cc2ccccc21", "assigned.category": "NO"}
{"compound": "FC(F)(F)c1cccc(COCCN2CCN(Cc3cccc(C(F)(F)F)c3)CC2)c1", "assigned.category": "NO"}

====

Catalogue of GI50 values
tested on: MDA-N; assay: NCI tumour cell line growth inhibition, 48 h
Active and inactive are the calls of the source. No stated cut-off is given here; in the data, active = GI50 up to about 1.1 µM and inactive = higher.

{"compound": "Cc1ccc(C2=Nn3c(nc4sc5c(c4c3=O)CCCC5)SC2)cc1", "GI50": "> 100 µM (inactive)"}
{"compound": "COc1ccc2c3c1OC1c4[nH]c5ccccc5c4CC4(O)C(C2)N(C)CCC314 (centres undefined)", "GI50": "17.3 µM (inactive)"}
{"compound": "CC(C)c1c(O[Si](C(C)C)(C(C)C)C(C)C)cc2c(c1O)CC[C@H]1C(C)(C)CCC[C@]21C", "GI50": "> 100 µM (inactive)"}
{"compound": "O=C(OCC(Cl)(Cl)Cl)N1CC[C@@H](C2CCCCC2)C1", "GI50": "31 µM (inactive)"}

====

tested on: SF-268; experiment: NCI tumour cell line growth inhibition, 48 h
Activity calls are given as the source filed them. Rule as the data show it: active = GI50 up to about 1.1 µM and inactive = higher. Peptide text beside a SMILES is read from it.
Outcome codes: active, inactive

{"compound": "Cn1c(=O)c2nc(N3CCCCC3)cnc2n(C)c1=O", "assigned.category": "inactive"}
{"compound": "CCCC[C@H]1C(=O)O[C@H](C)[C@H](NC(=O)c2cccc(NC=O)c2OC)C(=O)O[C@@H](C)[C@@H]1OC(=O)C(C)CC.CCCC[C@H]1C(=O)O[C@H](C)[C@H](NC(=O)c2cccc(NC=O)c2OC)C(=O)O[C@@H](C)[C@@H]1OC(=O)CC(C)C (stereo partly drawn)", "assigned.category": "inactive"}
{"compound": "Nc1ccc([C@H]2C(=O)N[C@H]3CCC[C@H]32)cc1", "assigned.category": "inactive"}
{"compound": "Nc1nc(N)c(CCCCc2ccccc2)c(/C=C/c2ccc([N+](=O)[O-])cc2)n1", "assigned.category": "inactive"}
{"compound": "O=C(NC(O)(C(F)(F)F)C(F)(F)F)c1ccccc1", "assigned.category": "inactive"}
{"compound": "CCOc1ccc2c(c1)[n+]([O-])c(-c1ccc([N+](=O)[O-])cc1)c(N)[n+]2[O-]", "assigned.category": "inactive"}
{"compound": "CC1(C)CC(=O)C2=C(C1)NC1=C(C2)C(=O)CC(C)(C)C1", "assigned.category": "inactive"}
{"compound": "O=C(Nc1cccc2ccccc12)Oc1ccccc1C1CCCCC1", "assigned.category": "inactive"}
{"compound": "O=C1Oc2ccccc2C(=O)/C1=C/N1C(=O)N/C(=C\\c2ccccc2O)C1=O", "assigned.category": "inactive"}
{"compound": "COC(=O)[C@H]1NC(=O)CCSSC1(C)C", "assigned.category": "inactive"}
{"compound": "O=C1C(Cl)N(c2ccccc2Cl)C1c1c[nH]c2ccccc12 (stereo not drawn)", "assigned.category": "inactive"}
{"compound": "Cc1cc(NC(=O)NC(=O)c2ccccc2N)ccc1Oc1ncc(Br)cn1", "assigned.category": "active"}
{"compound": "CC(C)(C)c1cc(C#N)c2c(c1)C(=O)OC2(c1ccccc1)c1ccccc1C#N (stereo not drawn)", "assigned.category": "inactive"}
{"compound": "COc1cc(C2SCC(=O)N2c2ccccc2Cl)cc(OC)c1OC (stereo not drawn)", "assigned.category": "inactive"}
{"compound": "COC(=O)C1=C(C)NC(C)=C(C(=O)OC)C1c1nc2sccn2c1[N+](=O)[O-]", "assigned.category": "inactive"}
{"compound": "O=C(c1ccccc1)c1nc2c(Cl)ccc(Cl)c2cc1C(Br)Br", "assigned.category": "inactive"}
{"compound": "C[C@H]1S[C@H](c2c(Cl)cccc2Cl)N2Cc3ccccc3N=C12", "assigned.category": "inactive"}
{"compound": "CC(=O)O[C@H]1CC2C(C3CCC(C(C)CCC(=O)O)[C@]31C)[C@H](OC(C)=O)C[C@@H]1CC3(CC[C@]21C)OOC1(CC[C@]2(C)C4C[C@H](OC(C)=O)[C@]5(C)C(C(C)CCC(=O)O)CCC5C4[C@H](OC(C)=O)C[C@@H]2C1)OO3 (stereo partly drawn)", "assigned.category": "inactive"}
{"compound": "C=C(CN(C)C)C(=O)c1ccc(OC2OC(COC(C)=O)C(OC(C)=O)C(OC(C)=O)C2OC(C)=O)cc1 (stereo not drawn)", "assigned.category": "inactive"}
{"compound": "CC(C)CNC1=NCC(C)S1 (stereo not drawn)", "assigned.category": "inactive"}
{"compound": "FC(F)(F)c1cccc(COCCN2CCN(Cc3cccc(C(F)(F)F)c3)CC2)c1", "assigned.category": "inactive"}
{"compound": "COc1ccc2c3c([nH]c2c1[N+](=O)[O-])C(C)N(Cc1ccccc1)CC3 (stereo not drawn)", "assigned.category": "inactive"}
{"compound": "COc1cc(O)c2c(=O)c3c(C)cccc3n(C)c2c1", "assigned.category": "inactive"}
{"compound": "COc1ccc(C2=NC(C)(C)CO2)cc1", "assigned.category": "inactive"}
{"compound": "Cc1cc2nn(C3CCCO3)nc2cc1C (stereo not drawn)", "assigned.category": "inactive"}
{"compound": "O=C(O)c1ccc(Nc2nc3ccc(C(F)(F)F)cc3nc2C(=O)O)cc1", "assigned.category": "inactive"}
{"compound": "CN1CC2=C(N=C(S)NC2c2ccc(Cl)cc2)/C(=C/c2ccc(Cl)cc2)C1 (stereo not drawn)", "assigned.category": "inactive"}
{"compound": "Cc1ccc(C)c2c1CCc1cc3ccccc3nc1-2", "assigned.category": "inactive"}
{"compound": "O=c1cc(CO)n(CCc2c[nH]c3ccccc23)cc1O", "assigned.category": "inactive"}
{"compound": "CC(C)CC(NC(=O)C(CC(C)C)NC(=O)C(Cc1c[nH]cn1)NC(=O)C(C)NC(=O)C(NC(=O)C(C)NC(=O)C(Cc1c[nH]c2ccccc12)NC(=O)C(CCC(=O)O)NC(=O)C(N)Cc1ccccc1)C(C)C)C(N)=O (stereo not drawn) (H-FEWAVAHLL-NH2; configuration not given here)", "assigned.category": "inactive"}
{"compound": "CC1=C(C#N)C2C(=C(C)N1)C(N)=Nc1ccccc12 (stereo not drawn)", "assigned.category": "inactive"}
{"compound": "COc1cc(Oc2c(O)c(C)c(OC)c(C(C)=O)c2O)c(C(C)=O)c(O)c1C", "assigned.category": "inactive"}
{"compound": "NC(CSC1(c2ccc(Cl)cc2)c2ccccc2-c2ccccc21)C(=O)O (stereo not drawn)", "assigned.category": "inactive"}
{"compound": "O=C(Nc1ccc(Cl)cc1)c1cc([N+](=O)[O-])ccc1O", "assigned.category": "inactive"}
{"compound": "CCC1OC2C(CC=C(C)C)=C3OC(C)(O)C(C)(CC)C(OC(=O)c4ccccc4)C3=C3OC(=O)C=C1C32 (stereo not drawn)", "assigned.category": "inactive"}
{"compound": "C=C(C)C12CC3CC(/C(=N/O)C(C1)/C3=N\\O)[C@@]2(C)O (stereo partly drawn)", "assigned.category": "inactive"}
{"compound": "C=CCC1C(=O)C(C(=O)OC)N2CCc3c([nH]c4ccccc34)C12 (stereo not drawn)", "assigned.category": "inactive"}
{"compound": "CO[C@H]1ON=C(c2c(C)cc(C)cc2C)[C@@H]1C1(c2ccccc2)ON=C(c2c(C)cc(C)cc2C)O1 (stereo partly drawn)", "assigned.category": "inactive"}

====

Each entry below lists one item and its recorded GI50 value.
tested on: M14; assay: NCI tumour cell line growth inhibition, 48 h
Calls of active or inactive are those of the source. No stated cut-off is given here; in the data, active = GI50 up to about 1.1 µM and inactive = higher.

{"molecule": "CC1CC2CC(=O)CC3(C1)C2CCCN3CCCO (stereo unspecified)", "GI50": "> 100 µM (inactive)"}
{"molecule": "CCOC(=O)C(C#N)C1=CC(=O)C(=O)c2ccc(O)cc21 (stereo unspecified)", "GI50": "20.9 µM (inactive)"}
{"molecule": "CCOC(=O)C(=O)Nc1c(C)cccc1C(C)(C)C", "GI50": "> 100 µM (inactive)"}
{"molecule": "COc1cc(OC(C)=O)cc2c(OC(C)=O)ccc(OC(C)=O)c12", "GI50": "> 100 µM (inactive)"}
{"molecule": "Oc1ccccc1/C=N/Cc1ccco1", "GI50": "> 100 µM (inactive)"}
{"molecule": "C=C(CN(C)C)C(=O)c1ccc(OC2OC(COC(C)=O)C(OC(C)=O)C(OC(C)=O)C2OC(C)=O)cc1 (stereo unspecified)", "GI50": "2.4 µM (inactive)"}
{"molecule": "COC1/C=C\\C=C(/C)C(=O)NC2=CC(=O)C(N)=C(CC(C)CC(OC)C(O)C(C)C=C(C)C1OC(N)=O)C2=O (stereo unspecified)", "GI50": "0.0204 µM (active)"}
{"molecule": "Cc1ncc(-c2nnnn2-c2ccccc2)c(C(=O)O)n1", "GI50": "> 100 µM (inactive)"}
{"molecule": "COc1ccc(OC)c(N(CN2C(=O)CCC2C(=O)O)C(C)=O)c1 (stereo unspecified)", "GI50": "> 100 µM (inactive)"}
{"molecule": "Cc1c2n(c3ccccc13)S(=O)(=O)c1ccccc1-2", "GI50": "27.4 µM (inactive)"}
{"molecule": "C=C1C(=O)OC2/C=C(CO)/C=C\\C3OC3(C)CC(OC(=O)/C(C)=C/COC(C)=O)C12 (stereo unspecified)", "GI50": "2.3 µM (inactive)"}
